Biological target: α1A Human Adrenergic Receptor (Homo sapiens, UniProt P25100)
Construct: The entire coding region of α1A (1719 bp); expressed in transfected cells
Sequence (P25100 whole entry): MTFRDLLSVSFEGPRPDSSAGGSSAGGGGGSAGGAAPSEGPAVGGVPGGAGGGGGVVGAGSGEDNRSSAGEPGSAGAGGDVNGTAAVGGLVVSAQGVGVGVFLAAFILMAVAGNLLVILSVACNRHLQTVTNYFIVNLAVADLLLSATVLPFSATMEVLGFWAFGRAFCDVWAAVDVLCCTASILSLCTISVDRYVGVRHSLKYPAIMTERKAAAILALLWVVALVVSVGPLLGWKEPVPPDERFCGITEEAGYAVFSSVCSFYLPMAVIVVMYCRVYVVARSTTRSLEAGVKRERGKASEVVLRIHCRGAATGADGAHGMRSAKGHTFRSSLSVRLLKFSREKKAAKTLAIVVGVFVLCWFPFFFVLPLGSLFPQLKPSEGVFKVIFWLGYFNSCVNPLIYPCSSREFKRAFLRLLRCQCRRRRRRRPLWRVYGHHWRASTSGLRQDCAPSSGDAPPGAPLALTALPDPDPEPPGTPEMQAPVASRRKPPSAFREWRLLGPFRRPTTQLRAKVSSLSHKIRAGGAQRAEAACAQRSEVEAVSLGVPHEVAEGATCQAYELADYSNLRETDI
Assay: Radioligand binding, [3H]prazosin, cloned human α1A adrenergic receptor
Details: [3H]prazosin, cloned human α1A receptor, LM(tk−) cell membranes
Output Fulfilled for pKi alpha-1 1a not less than 6; output Not fulfilled otherwise.

These recorded examples may help you get a feel for the data.
[[record]]
compound = "CCC1=C(C(N)=O)C(c2ccc([N+](=O)[O-])cc2)C(C(=O)NCCCN2CCC(c3ccccc3)(c3ccccc3)CC2)=C(CC)N1 (stereo not shown) [Example 120]"
cat = "Fulfilled"

[[record]]
compound = "CCC1=C(C(N)=O)C(c2ccc([N+](=O)[O-])cc2)C(C(=O)NC2CCN(CCc3c[nH]c4ccccc34)CC2)=CN1CC (stereo not shown) [Example 122]"
cat = "Fulfilled"

[[record]]
compound = "CCOC(=O)C1=C(CNCCCN2CCC(c3ccccc3)(c3ccccc3)CC2)NC(C)=C(C(=O)OC)C1c1ccc([N+](=O)[O-])cc1.Cl.O (stereo not shown) [Example 90]"
cat = "Fulfilled"

[[record]]
compound = "CCC1=C(C(N)=O)C(c2ccc([N+](=O)[O-])cc2)C(C(=O)NC2CCN(CCc3c[nH]c4ccccc34)CC2)=CN1CC (stereo not shown) [Example 123]"
cat = "Fulfilled"

[[record]]
compound = "COC(=O)C1=C(C)NC2=C(C(=O)N(CCCN3CCC(c4ccccc4)(c4ccccc4)CC3)C2)C1c1ccc([N+](=O)[O-])cc1.Cl.O (stereo not shown) [Example 91]"
cat = "Fulfilled"


Task: Is pKi alpha-1 1a for CCC1=C(C(=O)NC)C(c2ccc([N+](=O)[O-])cc2)C(C(=O)NCCCN2CCC(C#N)(c3ccccc3)CC2)=C(CC)N1 (stereo not shown) [Example 126] at or above 6?
Output: Not fulfilled
